Measured pest or weed control at 2241.7 g/ha accompanies every entry in the list below.
system: downybrome (Bromus tectorum); assay: Preemergence herbicidal activity, downybrome; type: in vivo; details: Bromus tectorum, pre-emergence, 336 h, Pre, 2 lb/A

[
  {
    "compound": "CCOC(=O)C(CC)Oc1ccc(Oc2ccc(C(F)(F)F)cc2Cl)cc1 (centres unmarked)",
    "tested system": "downybrome (Bromus tectorum)",
    "value unit": "%",
    "pest or weed control at 2241.7 g/ha": 90
  },
  {
    "compound": "CCCCCCCCOC(=O)C(C)Oc1ccc(Oc2ccc(C(F)(F)F)cc2Cl)cc1 (centres unmarked)",
    "tested system": "downybrome (Bromus tectorum)",
    "value unit": "%",
    "pest or weed control at 2241.7 g/ha": 0
  },
  {
    "compound": "CCOC(=O)C(C)Oc1ccc(Oc2ccc(C(F)(F)F)cc2C#N)cc1 (centres unmarked)",
    "tested system": "downybrome (Bromus tectorum)",
    "value unit": "%",
    "pest or weed control at 2241.7 g/ha": 95
  },
  {
    "compound": "CCOC(=O)CCC(C)Oc1ccc(Oc2ccc(C(F)(F)F)cc2)cc1 (centres unmarked)",
    "tested system": "downybrome (Bromus tectorum)",
    "value unit": "%",
    "pest or weed control at 2241.7 g/ha": 60
  },
  {
    "compound": "COC(=O)C(C)Oc1ccc(Oc2ccc(C(F)(F)F)cc2Cl)cc1 (centres unmarked)",
    "tested system": "downybrome (Bromus tectorum)",
    "value unit": "%",
    "pest or weed control at 2241.7 g/ha": 0
  }
]

====

tested on: cocklebur (Xanthium pensylvanicum); assay: Preemergence herbicidal activity, cocklebur; type: in vivo; settings: Pre, 2 lb/A
measure name: % control, Cocklebur (%)

[
  {
    "molecule": "CC(Oc1ccc(Oc2ccc(C(F)(F)F)cc2Cl)cc1)C(=O)O (stereo not drawn) [Example 14]",
    "measured number": 0
  },
  {
    "molecule": "CC(Oc1ccc(Oc2ccc(C(F)(F)F)cc2Cl)cc1)C(=O)O (stereo not drawn) [Example 13]",
    "measured number": 0
  },
  {
    "molecule": "CC(Oc1ccc(Oc2ccc(C(F)(F)F)cc2Cl)cc1)C(=O)O (stereo not drawn) [Example 16]",
    "measured number": 0
  },
  {
    "molecule": "CC(Oc1ccc(Oc2ccc(C(F)(F)F)cc2Cl)cc1)C(=O)O (stereo not drawn) [Example 17]",
    "measured number": 0
  },
  {
    "molecule": "CC(Oc1ccc(Oc2ccc(C(F)(F)F)cc2Cl)cc1)C(=O)O (stereo not drawn) [Example 12]",
    "measured number": 0
  },
  {
    "molecule": "CC(Oc1ccc(Oc2ccc(C(F)(F)F)cc2Cl)cc1)C(=O)O (stereo not drawn) [Example 15]",
    "measured number": 0
  }
]

====

Let's look at some compounds and their measured pest or weed control at 2241.7 g/ha.
Tested on: morningglory (Ipomoca spp.)
Test: Preemergence herbicidal activity, morningglory
Assay type: in vivo
Details: Ipomoea, pre-emergence, 336 h, 2 lb/A
Description: Using the procedure described below, compounds of the invention are evaluated for control of several of the following plant species: The following est procedure is employed. Seeds of selected crops and weeds are planted in soil in flats. […] The compound to be evaluated is dissolved in acetone, diluted with water, and sprayed over the flats using a carrier volume equivalent to 50 gallons per acre at the rate of application (pounds per acre, lb/A.) specified in the tables. […]

[
  {
    "compound": "CCOC(=O)C(C)Oc1ccc(Sc2ccc(C(F)(F)F)cc2C#N)cc1 (stereo not shown)",
    "tested system": "morningglory (Ipomoca spp.)",
    "pest or weed control at 2241.7 g/ha": "0%"
  },
  {
    "compound": "CCOC(=O)C(C)Oc1ccc(Oc2ccc(C(F)(F)F)cc2Cl)cc1C (stereo not shown)",
    "tested system": "morningglory (Ipomoca spp.)",
    "pest or weed control at 2241.7 g/ha": "0%"
  },
  {
    "compound": "CCOC(=O)C(C)Oc1ccc(Oc2ccc(C(F)(F)F)cc2C#N)cc1 (stereo not shown)",
    "tested system": "morningglory (Ipomoca spp.)",
    "pest or weed control at 2241.7 g/ha": "40%"
  },
  {
    "compound": "CC(C#N)Oc1ccc(Oc2ccc(C(F)(F)F)cc2)cc1 (stereo not shown)",
    "tested system": "morningglory (Ipomoca spp.)",
    "pest or weed control at 2241.7 g/ha": "0%"
  },
  {
    "compound": "COCCOC(=O)C(C)Oc1ccc(Oc2ccc(C(F)(F)F)cc2Cl)cc1 (stereo not shown)",
    "tested system": "morningglory (Ipomoca spp.)",
    "pest or weed control at 2241.7 g/ha": "0%"
  },
  {
    "compound": "CC(Oc1ccc(Oc2ccc(C(F)(F)F)cc2)cc1)C(N)=O (stereo not shown)",
    "tested system": "morningglory (Ipomoca spp.)",
    "pest or weed control at 2241.7 g/ha": "0%"
  },
  {
    "compound": "CCOC(=O)C(C)Oc1ccc(Oc2ccc(C(F)(F)F)cc2Cl)cc1Cl (stereo not shown)",
    "tested system": "morningglory (Ipomoca spp.)",
    "pest or weed control at 2241.7 g/ha": "0%"
  }
]

The measurements presented in this section are drawn from patent US4335249A.
